B1: library; numbered along this chain (parent)
chain: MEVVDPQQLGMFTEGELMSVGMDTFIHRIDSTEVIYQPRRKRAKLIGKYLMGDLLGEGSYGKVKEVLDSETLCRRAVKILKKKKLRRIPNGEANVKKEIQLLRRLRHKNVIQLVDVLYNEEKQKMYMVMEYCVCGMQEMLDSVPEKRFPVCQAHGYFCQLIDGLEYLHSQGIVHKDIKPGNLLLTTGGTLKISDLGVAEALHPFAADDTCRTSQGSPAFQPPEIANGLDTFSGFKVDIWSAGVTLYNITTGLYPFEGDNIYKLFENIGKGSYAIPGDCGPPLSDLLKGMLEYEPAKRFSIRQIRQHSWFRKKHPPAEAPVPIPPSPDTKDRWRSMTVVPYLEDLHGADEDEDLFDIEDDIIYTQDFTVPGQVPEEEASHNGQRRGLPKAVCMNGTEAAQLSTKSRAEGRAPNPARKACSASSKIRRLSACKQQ

# Variants of: B1
# protocol.notes: STK11 functional score (HeLa growth suppression), rescaled enrichment; synonymous median = 1, nonsense median = 0 (normalised score)
# particulars: with HeLa; variant type: missense
reported.endpoint: STK11 functional score

>>> print(df.to_string())
    variant_spec  endpoint_result
 0         A410M            0.531
 1          G58M            0.219
 2         A295H              1.4
 3         E317F            0.542
 4         M127D            0.289
 5         S240R            0.823
 6         Q214G             1.57
 7         H168N            0.275
 8         T249G            0.293
 9         Q123Y             1.01
10         M139I             1.01
11          S69A             1.14
12         F354V              1.3
13         P254F            0.445
14         E256R             1.48
15          Y49C             1.01
16         V338R             0.93
17          L72M            0.649
18         P222C            0.773
19         P280S             1.16
20         P413C             1.17
21          V20C            0.242
22         N380Y             1.14
23         C151K             1.67
24         N393H             1.51
25         T249K          -0.0774
26         Q220E             0.51
27         S428G              1.6
28         Q137T              1.6
29         K269Y             1.33
30         N380S            0.982
31         G276P             1.22
32         D365I             1.47
33          Y49V            0.956
34         A218Q             1.25
35         L286S           0.0276
36         S142H             1.44
37          I88G            0.665
38         S299V            0.978
39         P149I            0.249
40         S213Y             1.34
41         R331H           -0.127
42          N90R             1.01
43         I356M             1.21
44         N259L             1.26
45         K191S             1.17
46         P413E             1.59
47         F264R            0.806
48         Y246F            0.678
49         E138Y             1.08
50         S142W            0.385
51          K48Q             1.41
52         Q220Y             1.33
53         V133G             1.14
54         A273M            0.796
55          K41I            0.844
56         S213N             1.65
57          T24W              1.6
58         K423Q            0.701
59         F219W             1.49
60         L285P            -0.13
61         A414S             1.57
62         N247M              0.7
63          L55R             1.21
64         A225G             1.05
65         L164P          -0.0524
66         H345I             1.44
67         L102E             1.51
68          G21R              1.2
69         G279T             1.57
70         R409P             1.57
71         Q305S            0.954
72         E407L            0.778
73          G15S             1.28
74         F231T             1.64
75         E374D            0.971
76         E120N             1.68
77         P321M             1.61
78         S307A             1.49
79         V116R            0.888
80         G242P           0.0217
81          T71R            0.849
82          P38A             1.06
83         T209S             0.82
